- experimental_system: HLA-B*07:02
- test_description: IEDB peptide-MHC binding, purified MHC/direct/fluorescence; filed as Kd, often an IC50 or EC50 that approximates it; bounds were set here for any values at or beyond the usual limits of such assays
- applied_conditions: source organism: Influenza A virus (A/Viet Nam/HN/2004(H5N1))
reported_metric: Kd

Q. Which Kd reading was recorded for the sequence `RRVRDNMTK` ?
A. ≥ 20 µM

----------
- experimental_system: HLA-B*08:01
- test_description: IEDB peptide-MHC binding, purified MHC/competitive/radioactivity; filed as Kd, often an IC50 or EC50 that approximates it; bounds were set here for any values at or beyond the usual limits of such assays
- applied_conditions: source organism: Dengue virus 4 Philippines/H241/1956
Below, each entry is listed alongside its reported Kd.
# number only, unit nM dropped from output

Q. Which Kd reading was recorded for the sequence `INRKGKVIGL` ?
A. 3660

Q. Same again, this time with `GIMAVGLVSL`
A. 1230

***
Q. Which Kd reading was recorded for the sequence `VKPKGKVVDL` ?
A. 2150

----------
- experimental_system: HLA-A*24:02
- test_description: IEDB peptide-MHC binding, purified MHC/competitive/fluorescence; filed as Kd, often an IC50 or EC50 that approximates it; bounds were set here for any values at or beyond the usual limits of such assays
- applied_conditions: source organism: Salmonella enterica subsp. enterica serovar Typhi
reported_metric: Kd

Q. For HLA-A*24:02, provide Kd of `IYAAISYMI` please.
A. ≤ 0.1 nM

----------
- experimental_system: HLA-B*08:01
- test_description: IEDB peptide-MHC binding, purified MHC/competitive/radioactivity; filed as Kd, often an IC50 or EC50 that approximates it; bounds were set here for any values at or beyond the usual limits of such assays
- applied_conditions: source organism: Dengue virus 3 Singapore/8120/1995
reported_metric: Kd (nM)
# number only, unit nM dropped from output

Q. Which Kd reading was recorded for the sequence `LAKRFSRGL` ?
A. 962

----------
- experimental_system: HLA-A*33:01
- test_description: IEDB peptide-MHC binding, purified MHC/competitive/radioactivity; filed as Kd, often an IC50 or EC50 that approximates it; bounds were set here for any values at or beyond the usual limits of such assays
- applied_conditions: source organism: Vaccinia virus WR
pKd: −log10 of the molar value.
Is pKd at least 6? Then Met. If not, Not met.

Consider the worked cases shown below.
Q. Please tell me: is the sequence `LLMHLVSLYK` at or over 6 in terms of pKd?
A. Not met

Q. Same again, this time with `FTFGDTALY`
A. Not met

Q. Same again, this time with `IMFEQYFIY`
A. Not met

Q. Same again, this time with `LFTSTNDKIK`
A. Not met

***
Q. Please tell me: is the sequence `IIGPMFSGK` at or over 6 in terms of pKd?
A. Not met

Q. Same again, this time with `GLKIEEIEK`
A. Not met

Q. Same again, this time with `GTGLWTHDK`
A. Not met

----------
- experimental_system: HLA-A*02:16
- test_description: IEDB peptide-MHC binding, purified MHC/competitive/fluorescence; filed as Kd, often an IC50 or EC50 that approximates it; bounds were set here for any values at or beyond the usual limits of such assays
- applied_conditions: source organism: Vibrio cholerae 2740-80
reported_metric: Kd

Q. Which Kd reading was recorded for the sequence `HSYLWDHQM` ?
A. ≥ 20 µM

----------
- experimental_system: HLA-A*11:01
- test_description: IEDB peptide-MHC binding, purified MHC/competitive/fluorescence; bounds were set here for any values at or beyond the usual limits of such assays
- applied_conditions: source organism: Vaccinia virus Copenhagen
reported_metric: IC50 (nM)
# number only, unit nM dropped from output

Q. For HLA-A*11:01, provide IC50 of `KSISKSNAK` please.
A. 1680

----------
- experimental_system: HLA-A*02:01
- test_description: IEDB peptide-MHC binding, purified MHC/direct/fluorescence; filed as Kd, often an IC50 or EC50 that approximates it; bounds were set here for any values at or beyond the usual limits of such assays
- applied_conditions: source organism: Serratia proteamaculans
reported_metric: Kd

Q. Which Kd reading was recorded for the sequence `GMPNWCVSI` ?
A. 24.7 nM

----------
- experimental_system: HLA-A*68:01
- test_description: IEDB peptide-MHC binding, purified MHC/competitive/radioactivity; filed as Kd, often an IC50 or EC50 that approximates it; bounds were set here for any values at or beyond the usual limits of such assays
- applied_conditions: source organism: Dengue virus 3 Sri Lanka/1266/2000
reported_metric: Kd (nM)
# number only, unit nM dropped from output

Q. For HLA-A*68:01, provide Kd of `TIFTLTVAWR` please.
A. 87.3

----------
- experimental_system: HLA-B*15:17
- test_description: IEDB peptide-MHC binding, purified MHC/competitive/fluorescence; filed as Kd, often an IC50 or EC50 that approximates it; bounds were set here for any values at or beyond the usual limits of such assays
- applied_conditions: source organism: Yersinia pestis Nepal516
reported_metric: Kd

Q. Which Kd reading was recorded for the sequence `LELIGNAES` ?
A. ≥ 20 µM

----------
- experimental_system: HLA-A*01:01
- test_description: IEDB peptide-MHC binding, purified MHC/direct/fluorescence; filed as Kd, often an IC50 or EC50 that approximates it; bounds were set here for any values at or beyond the usual limits of such assays
- applied_conditions: source organism: Reston ebolavirus - Reston
reported_metric: Kd
Returns: string containing the number followed by the unit.

Q. Which Kd reading was recorded for the sequence `TTDDSTSYY` ?
A. 12.2 nM

----------
- experimental_system: HLA-B*51:01
- test_description: IEDB peptide-MHC binding, purified MHC/competitive/fluorescence; filed as Kd, often an IC50 or EC50 that approximates it; bounds were set here for any values at or beyond the usual limits of such assays
- applied_conditions: source organism: Shigella flexneri 5 str. 8401
pKd: −log10 of the molar value.
reported_metric: pKd

Q. Which pKd reading was recorded for the sequence `FGALFMWLL` ?
A. ≤ 4.70

----------
- experimental_system: HLA-A*26:01
- test_description: IEDB peptide-MHC binding, purified MHC/competitive/fluorescence; filed as Kd, often an IC50 or EC50 that approximates it; bounds were set here for any values at or beyond the usual limits of such assays
- applied_conditions: source organism: Bacillus cereus ATCC 4342
pKd: −log10 of the molar value.
reported_metric: pKd

Q. For HLA-A*26:01, provide pKd of `GLFWGGIWY` please.
A. ≤ 4.70

----------
- experimental_system: HLA-A*23:01
- test_description: IEDB peptide-MHC binding, purified MHC/competitive/radioactivity; filed as Kd, often an IC50 or EC50 that approximates it; bounds were set here for any values at or beyond the usual limits of such assays
- applied_conditions: source organism: Mammarenavirus juninense
reported_metric: Kd (µM)
# number only, unit µM dropped from output

Q. Which Kd reading was recorded for the sequence `LFQFFVFLV` ?
A. 15.7

----------
- experimental_system: HLA-A*11:01
- test_description: IEDB peptide-MHC binding, purified MHC/competitive/radioactivity; filed as Kd, often an IC50 or EC50 that approximates it; bounds were set here for any values at or beyond the usual limits of such assays
- applied_conditions: source organism: Vaccinia virus Copenhagen
reported_metric: Kd
Returns: string containing the number followed by the unit.

Q. Which Kd reading was recorded for the sequence `NTFVNFNSVK` ?
A. 0.0659 µM

----------
Below, each entry is listed alongside its reported pKd.
- experimental_system: HLA-A*32:01
- test_description: IEDB peptide-MHC binding, purified MHC/competitive/radioactivity; filed as Kd, often an IC50 or EC50 that approximates it; bounds were set here for any values at or beyond the usual limits of such assays
- applied_conditions: source organism: Dengue virus 2 Jamaica/1409/1983
To interpret pKd, take it as minus log10 of a concentration measured in moles per litre.

Q. Which pKd reading was recorded for the sequence `KSYAQMWTL` ?
A. 7.79

***
Q. Which pKd reading was recorded for the sequence `IMAVGMVSI` ?
A. 7.69

----------
- experimental_system: HLA-B*58:01
- test_description: IEDB peptide-MHC binding, purified MHC/direct/fluorescence; filed as Kd, often an IC50 or EC50 that approximates it; bounds were set here for any values at or beyond the usual limits of such assays
- applied_conditions: source organism: Entamoeba histolytica HM-1:IMSS
reported_metric: pKd
To interpret pKd, take it as minus log10 of a concentration measured in moles per litre.

Q. Which pKd reading was recorded for the sequence `TAYEKLWYI` ?
A. 6.88

----------
- experimental_system: HLA-B*15:17
- test_description: IEDB peptide-MHC binding, purified MHC/competitive/fluorescence; filed as Kd, often an IC50 or EC50 that approximates it; bounds were set here for any values at or beyond the usual limits of such assays
- applied_conditions: source organism: Vibrio parahaemolyticus RIMD 2210633
pKd: −log10 of the molar value.
reported_metric: pKd

Q. Which pKd reading was recorded for the sequence `SMNYPNSYK` ?
A. ≤ 4.70
